assay: chemical genetic growth profiling, strain panel (AID 1159580);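 further: tested at 20 µM; growth read once vehicle control cultures reached saturation at 30 °C; 1 = growth at the plate median or of vehicle wells; lower values mean less growth of the strain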; conditions: S. cerevisiae deletion strains, growth OD, locus YOR083W, strain WHI5, active compounds read low
The campaign covered roughly 5,500 compounds. About 2,000 (36%) were called active. Inconclusive results (about 18%) are left out. This is one part of the list.
Measured normalized growth, listed per entry for reference.
value.type: normalized growth

structure_smiles_string=CC(C)N(C(=O)CCl)c1ccccc1 value_type="normalized growth" quantitative_readout=0.976
structure_smiles_string=C[N+](C)(C)CC(=O)[O-] value_type="normalized growth" quantitative_readout=0.971
structure_smiles_string=CN=C(NC#N)NCCSCc1nc(N=C(N)N)cs1 value_type="normalized growth" quantitative_readout=0.975

* * *

experiment: chemical genetic growth profiling, strain panel (AID 1159580); conditions: S. cerevisiae deletion strains, growth OD, locus YLR262C, strain YPT6 (second series)
Out of some 5,500 compounds screened, about 2,000 (36%) were called active. About 18% were inconclusive and are not listed. No stated cut-off is given here; in the data, active means normalized growth mostly below about 0.91 (no sharp cut-off); inconclusive means no clear call, values can overlap the other calls; inactive means mostly above about 0.92. The list shows a part of the results.
Possible outcomes: active, inactive

compound="CCC(C(=O)O)c1ccccc1 (stereo not given)" answer_label=inactive
compound="C[N+](C)(C)CCOP(=O)([O-])OP(=O)(O)OC[C@H]1OC(n2ccc(N)nc2=O)[C@H](O)[C@@H]1O (stereo not given in full)" answer_label=inactive
compound=O=C(/C=C/c1ccccc1)O[C@H]1C[C@@H](O)[C@]2(O)C=CO[C@@H](O[C@@H]3O[C@H](CO)[C@@H](O)[C@H](O)[C@H]3O)[C@H]12 answer_label=inactive
compound="CN1CCc2cc3c(cc2C1O)OCO3 (stereo not given)" answer_label=inactive
compound=CC(C)(N=NC(C)(C)C(=N)N)C(=N)N answer_label=inactive
compound="COc1cc2c(cc1OC)C(=O)C(CC1CCN(Cc3ccccc3)CC1)C2 (stereo not given)" answer_label=active
compound="CC(=O)O[C@@](C)(CCC=C(C)C)C1CC=C(C)CC1 (stereo not given in full)" answer_label=inactive
compound=CC[C@@H](CO)NCCN[C@@H](CC)CO answer_label=inactive
compound="COC(=O)[C@@H]1C(O)CC[C@H]2CN3CCc4c([nH]c5ccccc45)[C@@H]3C[C@@H]21 (stereo not given in full)" answer_label=inactive
compound="NCC1CCCCC1CC(=O)O (stereo not given)" answer_label=inactive

* * *

test: chemical genetic growth profiling, strain panel (AID 1159580); conditions: S. cerevisiae deletion strains, growth OD, locus YKR026C, strain gcn3, active compounds read low
Out of some 5,500 compounds screened, about 2,000 (36%) were called active. Roughly 18% stayed inconclusive and do not appear here. The list shows a part of the results.
Measured normalized growth, listed per entry for reference.
value.type: normalized growth

molecule="OCC(O)Cc1ccc2c(c1)OCO2 (configuration not stated)" value_type="normalized growth" quantitative_readout=0.989
molecule=CCCCOc1ccc(CC(=O)NO)cc1 value_type="normalized growth" quantitative_readout=0.991
molecule=COc1cccc([C@]2(O)CCCC[C@H]2CN(C)C)c1 value_type="normalized growth" quantitative_readout=0.977
molecule=COC(=O)COc1cc(Cl)c(Cl)cc1Cl value_type="normalized growth" quantitative_readout=0.992
molecule="CC(C)CC1C(=O)N2CCC[C@H]2C2(O)O[C@](NC(=O)C3C=C4c5cccc6[nH]c(Br)c(c56)C[C@H]4N(C)C3)(C(C)C)C(=O)N12 (some centres not stated)" value_type="normalized growth" quantitative_readout=0.998
molecule=Cc1cccc(Nc2cc(Cl)nc(SCC(=O)O)n2)c1C value_type="normalized growth" quantitative_readout=0.988
molecule=O=C(Cc1ccccc1)NO value_type="normalized growth" quantitative_readout=0.973
molecule=C/C=C(/C(=C/C)c1ccc(O)cc1)c1ccc(O)cc1 value_type="normalized growth" quantitative_readout=0.986
molecule="CC(=O)O[C@H]1C(=O)[C@@]2(C)C([C@H](OC(=O)c3ccccc3)[C@]3(O)C[C@H](OC(=O)[C@H](O)[C@@H](NC(=O)c4ccccc4)c4ccccc4)C(C)=C1C3(C)C)[C@]1(OC(C)=O)CO[C@@H]1C[C@@H]2O (some centres not stated)" value_type="normalized growth" quantitative_readout=0.999
molecule=CCCCOc1ccc(OCCCN2CCOCC2)cc1 value_type="normalized growth" quantitative_readout=0.985
molecule="CO[C@H]1C[C@H](O[C@H]2[C@H](C)[C@@H](OC3O[C@H](C)C[C@H](N(C)C)[C@H]3O)[C@@H](C)C[C@]3(CO3)C(=O)[C@H](C)[C@@H](O)[C@@H](C)[C@@H](C)OC(=O)[C@@H]2C)O[C@@H](C)[C@@H]1O (some centres not stated)" value_type="normalized growth" quantitative_readout=1
molecule=COc1ccc([C@@H]2CC(=O)c3c(O)cc(O)cc3O2)cc1O value_type="normalized growth" quantitative_readout=0.982
molecule=COc1ccc2cc1Oc1ccc(cc1)C[C@H]1c3cc(c(OC)cc3CCN1C)Oc1c(OC)c(OC)cc3c1[C@H](C2)N(C)CC3 value_type="normalized growth" quantitative_readout=1
molecule=CCC1(c2ccccc2)C(=O)NCNC1=O value_type="normalized growth" quantitative_readout=0.978
molecule="CC(=O)O[C@@](C)(CCC=C(C)C)C1CC=C(C)CC1 (some centres not stated)" value_type="normalized growth" quantitative_readout=0.99
molecule=NC(=O)N1c2ccccc2CC(=O)c2ccccc21 value_type="normalized growth" quantitative_readout=0.972
molecule=O=C(O)COc1cc(Cl)c(Cl)cc1Cl value_type="normalized growth" quantitative_readout=1
molecule="CNC1(C)C2CCC(C2)C1(C)C (configuration not stated)" value_type="normalized growth" quantitative_readout=1
molecule="CCC(C(=O)O)c1ccccc1 (configuration not stated)" value_type="normalized growth" quantitative_readout=0.99
molecule=OCc1ccccc1O[C@@H]1O[C@H](CO)[C@@H](O)[C@H](O)[C@H]1O value_type="normalized growth" quantitative_readout=1
molecule=COc1ccc(-c2coc3c(OC)c(OC)cc(O)c3c2=O)cc1 value_type="normalized growth" quantitative_readout=1.01
molecule="CC1(C)C2CC[C@]3(C)C(C(=O)C=C4[C@@H]5C[C@@](C)(C(=O)O)CC[C@]5(C)CC[C@]43C)[C@@]2(C)CC[C@@H]1OC(=O)CCC(=O)O (some centres not stated)" value_type="normalized growth" quantitative_readout=0.987

* * *

experiment: chemical genetic growth profiling, strain panel (AID 1159580);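 further: tested at 20 µM; growth read once vehicle control cultures reached saturation at 30 °C; 1 = growth at the plate median or of vehicle wells; lower values mean less growth of the strain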; details: S. cerevisiae deletion strains, growth OD, locus YLR113W, strain HOG1, active compounds read low
The whole screen tested about 5,500 compounds, of which about 2,000 (36%) were called active. Not shown: some 18% with an inconclusive outcome. The list shows a part of the results.
Measured normalized growth, listed per entry for reference.
value.type: normalized growth

compound="CC1(C)C2CC[C@]3(C)C(C(=O)C=C4[C@@H]5C[C@@](C)(C(=O)O)CC[C@]5(C)CC[C@]43C)[C@@]2(C)CC[C@@H]1O (some centres undefined)" value_type="normalized growth" quantitative_readout=0.974
compound=COc1cc(OC)c(C(=O)CCCN2CCCC2)c(OC)c1 value_type="normalized growth" quantitative_readout=1.01
compound="CC1(C)C2CC[C@]3(C)C(C(=O)C=C4[C@H]5C[C@@](C)(C(=O)O)CC[C@]5(C)CC[C@]43C)[C@@]2(C)CC[C@@H]1O (some centres undefined)" value_type="normalized growth" quantitative_readout=1.01
compound=OCCN(CCO)c1nc(N2CCCCC2)c2nc(N(CCO)CCO)nc(N3CCCCC3)c2n1 value_type="normalized growth" quantitative_readout=0.999

* * *

Measured normalized growth, listed per entry for reference.
assay: chemical genetic growth profiling, strain panel (AID 1159580);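 further: tested at 20 µM; growth read once vehicle control cultures reached saturation at 30 °C; 1 = growth at the plate median or of vehicle wells; lower values mean less growth of the strain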; settings: S. cerevisiae deletion strains, growth OD, locus YJL134W, strain LCB3, active compounds read low
About 2,000 (36%) of roughly 5,500 compounds were called active. Inconclusive results (about 18%) are left out. This is one part of the list.
value.type: normalized growth

compound=COc1c(CC=C(C)C)c2c(c3oc(=O)c(-c4ccc(O)cc4)c(O)c13)C=CC(C)(C)O2 quantitative_readout=1.01
compound=C=CCc1ccc2c(c1)OCO2 quantitative_readout=1
compound="COc1cccc2c1CCC1CC(=O)CCC21C (stereo unspecified)" quantitative_readout=0.981
compound=COc1ccc(-c2coc3c(OC)c(OC)ccc3c2=O)cc1 quantitative_readout=0.995
compound=COc1ccc2cc1Oc1ccc(cc1)C[C@H]1c3cc(c(OC)cc3CCN1C)Oc1c(OC)c(OC)cc3c1[C@H](C2)N(C)CC3 quantitative_readout=1.02
compound="COC1C(O)C(O)C(O)[C@@H](O)C1O (stereo partly specified)" quantitative_readout=0.999

* * *

experiment: chemical genetic growth profiling, strain panel (AID 1159580);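 further: tested at 20 µM; growth read once vehicle control cultures reached saturation at 30 °C; 1 = growth at the plate median or of vehicle wells; lower values mean less growth of the strain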; conditions: S. cerevisiae deletion strains, growth OD, locus YHR094C, strain hxt1
The whole screen tested about 5,500 compounds, of which about 2,000 (36%) were called active. Another 18% or so got no clear call; they are omitted. No stated cut-off is given here; in the data, active means normalized growth mostly below about 0.91 (no sharp cut-off); inconclusive means no clear call, values can overlap the other calls; inactive means mostly above about 0.92. Some of the results follow.
Possible outcomes: active, inactive

molecule=COC(=O)COc1cc(Cl)c(Cl)cc1Cl answer_label=inactive
molecule="CC1(C)C2CC[C@]3(C)C(C(=O)C=C4[C@H]5C[C@@](C)(C(=O)O)CC[C@]5(C)CC[C@]43C)[C@@]2(C)CC[C@@H]1O (stereo not given in full)" answer_label=inactive
molecule=O=C1C[C@@H](c2ccccc2)Oc2cc(O)cc(O)c21 answer_label=inactive
molecule="Cc1ccc(C(=O)C(C)CN2CCCCC2)cc1 (stereo not given)" answer_label=inactive
molecule=COc1ccc2c(c1)OC[C@@H](Cc1ccc(OC)c(OC)c1)[C@@H]2O answer_label=inactive
molecule=COc1ccc([C@@H]2CC(=O)c3c(O)cc(O)cc3O2)cc1O answer_label=inactive
molecule="OCC(O)Cc1ccc2c(c1)OCO2 (stereo not given)" answer_label=inactive
molecule="CCc1ccc(CCOc2ccc(CC3SC(=O)NC3=O)cc2)nc1 (stereo not given)" answer_label=inactive
molecule=N#Cc1c(Cl)c(Cl)c(Cl)c(C#N)c1Cl answer_label=inactive
molecule=O=C(O)c1cc(=O)c2cc(Cl)ccc2[nH]1 answer_label=inactive
molecule=c1ccc(CC2=NCCN2)cc1 answer_label=active
molecule=NC(=O)c1ncn([C@@H]2O[C@H](CO)[C@@H](O)[C@H]2O)c1O answer_label=inactive
molecule="CC(C)CC1C(=O)N2CCC[C@H]2C2(O)O[C@](NC(=O)C3C=C4c5cccc6[nH]c(Br)c(c56)C[C@H]4N(C)C3)(C(C)C)C(=O)N12 (stereo not given in full)" answer_label=inactive
molecule="O[C@H]1C=C2CCN3Cc4cc5c(cc4C(C23)[C@@H]1O)OCO5 (stereo not given in full)" answer_label=active
molecule="CC1(C)S[C@@H]2[C@H](NC(=O)[C@H](NC(=O)N3CCNC3=O)c3ccccc3)C(=O)N2C1C(=O)O (stereo not given in full)" answer_label=inactive
molecule=Oc1ccc(O)cc1 answer_label=inactive
molecule="COc1cc(OC)c2c(c1)OC(c1ccc(OC)c(OC)c1)C(O)C2 (stereo not given)" answer_label=inactive
molecule="CN1C2CC3C[C@H]1C(O3)C2O (stereo not given in full)" answer_label=inactive
molecule="CCCCCC(=O)O[C@]1(C(C)=O)CCC2C3CCC4=CC(=O)CC[C@]4(C)C3CC[C@@]21C (stereo not given in full)" answer_label=inactive
molecule="CO[C@H]1C[C@H](O[C@H]2[C@H](C)[C@@H](OC3O[C@H](C)C[C@H](N(C)C)[C@H]3O)[C@@H](C)C[C@]3(CO3)C(=O)[C@H](C)[C@@H](O)[C@@H](C)[C@@H](C)OC(=O)[C@@H]2C)O[C@@H](C)[C@@H]1O (stereo not given in full)" answer_label=inactive
